Assay: amyloid nucleation score (Sup35N fusion, yeast selection) (log enrichment); library NNK2; higher = more nucleation; inactive = no reads after selection;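 also: zero at mode of non-aggregating sequences after 7 days selection at 30°C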
Measure: amyloid nucleation score
Please reply with the number alone, leaving off any unit.

Reference set, count: 3
RLELVTVVSVSMHDLRHRRR yielded amyloid nucleation score of 4.75

For record EMDNGDSGTVW the listed amyloid nucleation score is -0.186

Value of measured amyloid nucleation score for the entry GWQWRWLHYRSVRINEEMVS : 0.342

***
According to the records, this substance SGFCQGGNSSRYMSII displays amyloid nucleation score of 1.9

Please fill in: amyloid nucleation score reported for SVDIGYS = 0.586

// recorded amyloid nucleation score for FYIGFYSPGLCVRFKFFSAR : -1.85

For NLTFACVVYANWVILTHGAR the substance record lists amyloid nucleation score as 6.34

The reported value for REFDRNFTPYPSQQELPIWW in terms of amyloid nucleation score is 0.827

The measured amyloid nucleation score associated with INVYRPFYIVRHY reads 5.1

FYI, the data here is from the supplement of paper PMC12042874.
